Test system: A673/TR/shEF
Method Notes: cell viability (LOESS-normalised, relative to median of negative controls) (log2 ratio); higher = more viable cells (less compound effect), active = hit call of the paper (over 3 MAD below the median)
Test Context: 2.5 µM; library screen: screen1; EWS-FLI1 expression: low (doxycycline-induced shRNA knockdown); treatment time: 72 h
Out of some 3,200 compounds screened, about 300 (9.4%) showed activity. Many of the other results were omitted from the sample, so actives are more common in it than they were.
cell viability (log2) strictly less than 0.03 = 1. Otherwise -1.

# count of solved cases: 5
Cc1ccsc1C=C1SC(=S)N(CC(=O)O)C1=O; -1
CC(=O)O[C@@H]1CC[C@@]2(C)[C@H](CC[C@@H]3[C@@H]2C[C@H](OC(C)=O)[C@]2(C)[C@@H](C(C)=O)CC[C@@H]32)C1; -1
COc1ccc(-c2cc(=O)c3c(OC)cc(OC)cc3o2)cc1; -1
NCCCC(=O)O; -1
CC(=O)Oc1cc(-c2coc3cc(OC(C)=O)c(OC(C)=O)c(OC(C)=O)c3c2=O)cc(OC(C)=O)c1OC(C)=O; 1

is_below(cell viability (log2), 0.03) for `C[C@H](NCCc1ccc(O)cc1)[C@H](O)c1ccc(O)cc1` ?
-1

Moving on to the next compound: `COC(=O)c1c(C)c2c(c(C)c1OC)OC(=O)c1c(C)c(Cl)c(OC)c(Cl)c1O2`
-1

Moving on to the next compound: `CCOc1cc(C(=O)Nc2ccc([N+](=O)[O-])cc2)cc(OCC)c1OCC`
1

Moving on to the next compound: `CC1(C)C=Cc2cc3ccc(=O)oc3cc2O1`
-1

Moving on to the next compound: `CNc1ccccc1C(=O)N1CCc2c([nH]c3ccccc23)C1=O`
1

====

Tested on: A673/TR/shEF
Method Notes: cell viability (LOESS-normalised, relative to median of negative controls) (log2 ratio); higher = more viable cells (less compound effect), active = hit call of the paper (over 3 MAD below the median)
Test Context: 0.25 µM; library screen: screen1; EWS-FLI1 expression: high (no doxycycline); treatment time: 72 h
The whole screen tested about 3,200 compounds, of which about 300 (9.4%) showed activity. Shown is part of a subset that was picked to be rich in actives.
Value Type: cell viability (log2)
I'd appreciate a reply containing only the number, no unit.

O=C(O[C@@H]1Cc2c(O)cc(O)cc2O[C@@H]1c1cc(O)c(O)c(O)c1-c1c([C@H]2Oc3cc(O)cc(O)c3C[C@H]2O)cc(O)c(O)c1O)c1cc(O)c(O)c(O)c1; 0.0332
COC(=O)C1=C(C)NC2=C(C(=O)CCC2)C1c1coc2ccccc2c1=O (configuration not stated); 0.109
CN1CCN(c2nc3ccccn3c(=O)c2/C=C2\SC(=S)N(C)C2=O)CC1; 0.017
O=c1cc([C@H]2Oc3cc(O)cc(O)c3C[C@H]2O)cc2c([C@H]3Oc4cc(O)cc(O)c4C[C@H]3O)cc(O)c(O)c2c1O; 0.0869
O=c1[nH]c(=O)n([C@H]2C[C@H](O)[C@@H](CO)O2)cc1F; -1.07
CC(=O)O[C@H]1C[C@@H](OC(C)=O)C(C)(C)C2CC(=O)[C@]3(C)C(CC[C@@]4(C)[C@H](C(=O)O)OC(=O)C5OC543)[C@]21C (some centres not stated); 0.123

# context switch: different compound, same cell viability (log2)
Can you look up cell viability (log2) on A673/TR/shEF for `COc1cc(CN2CCN(Cc3cccc(OC)c3OC)CC2)c([N+](=O)[O-])cc1OC` ?
0.00876
